Source listed as ChEMBL document CHEMBL5724914.

Assay: The drug is tested on Z-022 corresponding to mouse gut metagenome with ENA study accession number: PRJEB37062 and ENA sample accession number: ERS12561821 for biotransformation under anaerobic condition. The drug concentrations were measured over 9 timepoints collected between 0 and 24 hours of incubation by liquid-chromatography-coupled mass spectrometry (LC–MS); further: call rule not given here
Details: 2 µM
measured_metric: Bacterial Biotransformation

As a guide, the following entries are already answered.
| molecule | Bacterial Biotransformation |
| --- | --- |
| CC(=O)SCC(Cc1ccccc1)C(=O)NCC(=O)OCc1ccccc1 (stereo not drawn) | Compound metabolized |
| CCCN(CCC)CCc1cccc2c1CC(=O)N2 | Compound NOT metabolized |
| COc1ccnc(C[S+]([O-])c2nc3ccc(OC(F)F)cc3[nH]2)c1OC (stereo not drawn) | Compound metabolized |
| CN1[C@@H]2CC[C@H]1C[C@@H](OC(=O)c1c[nH]c3ccccc13)C2 | Compound NOT metabolized |
| C=C[C@H]1CN2CC[C@H]1C[C@H]2[C@H](O)c1ccnc2ccc(OC)cc12.C=C[C@H]1CN2CC[C@H]1C[C@H]2[C@H](O)c1ccnc2ccc(OC)cc12.O.O.O=S(=O)(O)O [QUININE SULFATE] | Compound NOT metabolized |

State the recorded Bacterial Biotransformation for every item in the following list.
1. O=C1CC2(CCCC2)CC(=O)N1CCCCN1CCN(c2ncccn2)CC1
2. COC(=O)[C@H](c1ccccc1Cl)N1CCc2sccc2C1.O=S(=O)(O)O [CLOPIDOGREL BISULFATE]
3. CCN(CC)C(=O)C1(c2ccccc2)CC1CN (stereo not drawn)

["Compound NOT metabolized", "Compound metabolized", "Compound NOT metabolized"]
